Values were extracted from DBAASP.

MIC values recorded for Escherichia coli 078

# input Give the measured MIC of CC[C@H](C)[C@H](NC(=O)[C@H](CCCN=C(N)N)NC(=O)[C@H](Cc1c[nH]c2ccccc12)NC(=O)[C@H](CCCN=C(N)N)NC(=O)[C@H](Cc1c[nH]c2ccccc12)NC(=O)[C@H](Cc1c[nH]c2ccccc12)NC(=O)[C@H](Cc1c[nH]c2ccccc12)NC(=O)[C@H](CCCN=C(N)N)NC(=O)[C@H](Cc1c[nH]c2ccccc12)NC(=O)[C@H](CCCN=C(N)N)NC(=O)CN)C(N)=O .
# output 4 µM

# input Give the measured MIC of CC[C@H](C)[C@H](NC(=O)[C@H](CC(C)C)NC(=O)[C@@H](NC(=O)[C@@H](N)CC(=O)O)[C@@H](C)CC)C(=O)N[C@H](C(=O)N[C@H](C(=O)NCC(=O)NCC(=O)N[C@@H](CCCN=C(N)N)C(=O)N[C@@H](CCCN=C(N)N)C(N)=O)C(C)C)[C@@H](C)CC .
# output ≥ 64 µM

# input Give the measured MIC of NC(=O)[C@H](Cc1c[nH]c2ccccc12)NC(=O)[C@H](CCCN=C(N)N)NC(=O)[C@H](Cc1c[nH]c2ccccc12)NC(=O)[C@H](CCCN=C(N)N)NC(=O)[C@H](Cc1c[nH]c2ccccc12)NC(=O)[C@H](Cc1c[nH]c2ccccc12)NC(=O)[C@H](Cc1c[nH]c2ccccc12)NC(=O)[C@H](CCCN=C(N)N)NC(=O)[C@H](Cc1c[nH]c2ccccc12)NC(=O)[C@@H](N)CCCN=C(N)N .
# output 2 µM

# input Give the measured MIC of CC[C@H](C)[C@H](NC(=O)[C@H](CCCN=C(N)N)NC(=O)[C@H](C)NC(=O)[C@H](C)N)C(=O)N[C@H](C(=O)N[C@@H](CC(C)C)C(=O)N[C@@H](CCCN=C(N)N)C(=O)N[C@@H](CC(C)C)C(=O)N[C@@H](CCCN=C(N)N)C(=O)N[C@@H](Cc1ccccc1)C(=O)N[C@@H](CCCN=C(N)N)C(N)=O)[C@@H](C)CC .
# output 4 µM

# input Give the measured MIC of CC[C@H](C)[C@H](NC(=O)[C@H](CC(C)C)NC(=O)[C@@H](NC(=O)[C@@H](N)CC(=O)O)[C@@H](C)CC)C(=O)N[C@H](C(=O)N[C@H](C(=O)NCC(=O)NCC(=O)N[C@@H](CCCCN)C(=O)N[C@@H](CCCN=C(N)N)C(=O)N[C@@H](CCCN=C(N)N)C(=O)N[C@@H](CCCCN)C(=O)N[C@@H](CCCCN)C(=O)N[C@@H](CCCN=C(N)N)C(=O)N[C@@H](CCCN=C(N)N)C(=O)N[C@@H](CCCN=C(N)N)C(N)=O)C(C)C)[C@@H](C)CC .
# output 8 µM

# input Give the measured MIC of CC(C)[C@H](NC(=O)[C@H](CCCN=C(N)N)NC(=O)[C@H](Cc1c[nH]c2ccccc12)NC(=O)[C@H](CCCN=C(N)N)NC(=O)[C@H](Cc1c[nH]c2ccccc12)NC(=O)[C@H](Cc1c[nH]c2ccccc12)NC(=O)[C@H](Cc1c[nH]c2ccccc12)NC(=O)[C@H](CCCN=C(N)N)NC(=O)[C@H](Cc1c[nH]c2ccccc12)NC(=O)[C@@H](N)CCCN=C(N)N)C(N)=O .
# output 4 µM

====

# Test system: Staphylococcus aureus IFO 12732
# assay_procedure: ≥ marks a high value that may be exact or a test limit, other limits are often not marked, values filed in µg/mL are converted to µM
Please provide measured MIC for the entries that follow.
Hi! Could you send only the number? It should be in µM, unit omitted.

# input Provide the documented MIC with Staphylococcus aureus IFO 12732 as the system for CC[C@H](C)[C@H](N)C(=O)N[C@@H](CC(C)C)C(=O)N1CCC[C@H]1C(=O)N[C@@H](Cc1c[nH]c2ccccc12)C(=O)N[C@@H](CCCCN)C(=O)N[C@@H](Cc1c[nH]c2ccccc12)C(=O)N1CCC[C@H]1C(=O)N[C@@H](Cc1c[nH]c2ccccc12)C(=O)N[C@@H](CC(C)C)C(=O)N1CCC[C@H]1C(=O)N[C@@H](Cc1ccc(O)cc1)C(=O)N[C@@H](CCCN=C(N)N)C(=O)N[C@@H](CCCN=C(N)N)C(N)=O
# output 3.45

# input Provide the documented MIC with Staphylococcus aureus IFO 12732 as the system for CC[C@H](C)[C@H](NC(=O)[C@H](CC(C)C)NC(=O)[C@@H]1CCCN1C(=O)[C@H](Cc1c[nH]c2ccccc12)NC(=O)[C@H](CCCCN)NC(=O)[C@H](Cc1c[nH]c2ccccc12)NC(=O)[C@@H]1CCCN1C(=O)[C@H](Cc1c[nH]c2ccccc12)NC(=O)[C@H](Cc1c[nH]c2ccccc12)NC(=O)[C@@H]1CCCN1C(=O)[C@H](Cc1c[nH]c2ccccc12)NC(=O)[C@H](CCCN=C(N)N)NC(=O)[C@@H](N)CCCN=C(N)N)C(N)=O
# output 0.818

# input Provide the documented MIC with Staphylococcus aureus IFO 12732 as the system for CC[C@H](C)[C@H](N)C(=O)N[C@@H](CC(C)C)C(=O)N1CCC[C@H]1C(=O)N[C@@H](CC(C)C)C(=O)N[C@@H](CCCCN)C(=O)N[C@@H](Cc1c[nH]c2ccccc12)C(=O)N1CCC[C@H]1C(=O)N[C@@H](Cc1c[nH]c2ccccc12)C(=O)N[C@@H](Cc1c[nH]c2ccccc12)C(=O)N1CCC[C@H]1C(=O)N[C@@H](Cc1c[nH]c2ccccc12)C(=O)N[C@@H](CCCN=C(N)N)C(=O)N[C@@H](CCCN=C(N)N)C(N)=O
# output 1.71

====

Please provide measured MIC for the entries that follow.
# Test system: Escherichia coli ATCC 25922
Hi! Could you send only the number? It should be in µM, unit omitted.

# input Give the measured MIC of CC[C@H](C)[C@H](NC(=O)[C@H](Cc1c[nH]c2ccccc12)NC(=O)[C@H](CCCN=C(N)N)NC(=O)[C@H](Cc1c[nH]c2ccccc12)NC(=O)[C@H](Cc1c[nH]c2ccccc12)NC(=O)[C@H](CCCN=C(N)N)NC(=O)[C@H](CCCN=C(N)N)NC(=O)[C@H](Cc1c[nH]c2ccccc12)NC(=O)[C@@H](N)CCCN=C(N)N)C(N)=O .
# output 10.7

# input Give the measured MIC of CC[C@H](C)[C@H](NC(=O)[C@H](Cc1ccccc1)NC(=O)[C@@H](NC(=O)[C@H](CCC(N)=O)NC(=O)[C@H](Cc1ccc(O)cc1)NC(=O)[C@H](CCCN=C(N)N)NC(=O)[C@@H](NC(=O)[C@H](CC(C)C)NC(=O)[C@H](CCCCN)NC(=O)[C@H](CCC(N)=O)NC(=O)[C@H](CC(C)C)NC(=O)[C@H](CCC(=O)O)NC(=O)[C@H](CCCCN)NC(=O)[C@H](Cc1ccccc1)NC(=O)[C@H](CC(C)C)NC(=O)[C@H](CC(C)C)NC(=O)CN)[C@@H](C)CC)[C@@H](C)CC)C(=O)NCC(=O)N[C@@H](CCCCN)C(N)=O .
# output 26.7

# input Give the measured MIC of CC(C)C[C@H](NC(=O)[C@H](CC(C)C)NC(=O)[C@@H](NC(=O)[C@H](CCCCN)NC(=O)[C@H](Cc1c[nH]c2ccccc12)NC(=O)[C@H](CCCN=C(N)N)NC(=O)[C@H](CCCCN)NC(=O)[C@H](CC(C)C)NC(=O)[C@H](CC(C)C)NC(=O)CN)[C@@H](C)O)C(N)=O .
# output 64

# input Give the measured MIC of CC[C@H](C)[C@@H]1NC(=O)CNC(=O)[C@H](CCCN=C(N)N)NC(=O)[C@H](Cc2ccc(O)cc2)NC(=O)[C@H](CO)NC(=O)[C@H](C(C)C)NC(=O)[C@H](CCCN=C(N)N)NC(=O)[C@H](Cc2ccccc2)NC(=O)[C@@H](NC(=O)[C@H](Cc2c[nH]c3ccccc23)NC(=O)[C@@H](N)CCCCN)CSSC[C@@H](C(=O)N[C@@H](CCCN=C(N)N)C(=O)O)NC(=O)[C@H](CCCN=C(N)N)NC(=O)[C@H](CCCN=C(N)N)NC(=O)[C@H](Cc2ccc(O)cc2)NC(=O)[C@H](C)NC1=O .
# output 0.45

====

readout_kind: MIC (µM)
Hi! Could you send only the number? It should be in µM, unit omitted.

# input Provide the documented MIC with Streptococcus agalactiae as the system for CC[C@H](C)[C@H](N)C(=O)N[C@@H](CC(C)C)C(=O)N[C@@H](CO)C(=O)N[C@@H](CC(C)C)C(=O)N[C@@H](CCCN=C(N)N)C(=O)N[C@@H](Cc1c[nH]c2ccccc12)C(=O)N[C@@H](CCCN=C(N)N)C(=O)N[C@@H](Cc1c[nH]c2ccccc12)C(=O)N[C@@H](Cc1c[nH]c2ccccc12)C(=O)N[C@@H](CCCCN)C(=O)N[C@@H](Cc1c[nH]c2ccccc12)C(=O)N[C@@H](CCCCN)C(=O)N[C@@H](CCCCN)C(=O)O [ILSLRWRWWKWKK]
# output 4

# input Provide the documented MIC with Streptococcus agalactiae as the system for CC[C@H](C)[C@H](NC(=O)[C@H](C)NC(=O)[C@H](CO)NC(=O)[C@@H](NC(=O)[C@H](C)NC(=O)[C@H](CC(N)=O)NC(=O)[C@@H](NC(=O)[C@H](C)NC(=O)[C@H](Cc1cnc[nH]1)NC(=O)[C@@H]1CCCN1C(=O)[C@@H](NC(=O)[C@H](CC(C)C)NC(=O)[C@H](CO)NC(=O)[C@H](CC(C)C)NC(=O)[C@@H](N)Cc1ccccc1)[C@@H](C)CC)[C@@H](C)CC)C(C)C)C(=O)N[C@@H](C)C(=O)N[C@@H](CCCCN)C(=O)N[C@@H](Cc1cnc[nH]1)C(=O)N[C@@H](CC(N)=O)C(N)=O [FLSLIPHAINAVSAIAKHN]
# output 3.9
